MEASURE: melting point

Examples with answers:
C(=CC(=Nc1ccccc1)OCc1ccccc1)Sc1ccccc1 [(60)]; 77 to 81 °C
Cc1cc(C)nc(SC=CC(=Nc2ccccc2)Oc2ccccc2)n1 [(124)]; 175 to 178 °C
O=S(=O)(C=CC(=Nc1ccccc1)Oc1ccccc1)c1ccccc1 [(99)]; 110 to 116 °C

Parameter requested: melting point. Apply to each item below.
1. CN(C=CC(=Nc1ccccc1)Oc1ccccc1)c1ccccc1 [(132)]
2. C(=CN1CCCCC1)C(=Nc1ccccc1)Oc1ccccc1 [(134)]
3. CC(C)(C)SC=CC(=Nc1ccccc1)Oc1ccccc1 [(140)]

Reply:
130 to 132 °C
127 to 128 °C
134 to 136 °C
